cell viability values, listed per item
- Tested on: BV-173
- testDescription: cell viability (% survival relative to DMSO control, bortezomib = 0%); higher = less cytotoxic
- conditionParameters: 1 nM; 72 h

compound	cell viability, %
O=C(C(=O)c1ccc(Br)cc1)c1ccc(Br)cc1 [4,4'-Dibromobenzil]	104
CC(C)c1ccc2c(c1)c(SC(C)(C)C)c(CC(C)(C)C(=O)O)n2Cc1ccc(Cl)cc1 [MK-886]	121
O=C(Cc1cccc(OC(F)(F)F)c1)Nc1ccc(CCCCc2nnc(NC(=O)Cc3ccccn3)s2)nn1 [CB-839]	133
O=C(Oc1cccc(F)c1OC(=O)c1cccc(O)c1)c1cccc(O)c1 [WZB117]	96
O=C1N[C@@H]2[C@@H](O)[C@@H](O)[C@H](O)[C@@H](CO)N2C1=O [Kifunensine]	95
OCCN1C[C@H](O)[C@@H](O)[C@H](O)[C@H]1CO [Miglitol]	90.6
C=C1NC(=O)c2cc(CN(C)c3ccc(C(=O)N[C@@H](CCC(=O)O)C(=O)O)s3)ccc2N1 [Raltitrexed]	95.6
Clc1cc(Cl)c(OCC#CI)cc1Cl [Haloprogin]	120

Measured values drawn from the supplement of paper PMC8671470 for this set.
